Some molecules, each annotated with its measured PDI.
Assay: Hydrodynamic diameter and polydispersity index by dynamic light scattering
Type: physicochemical
Conditions: FxNP, siFLuc, DSPC
Field format: numeric only.

Example entries and their recorded answers appear below.
CC12CCC3c4ccc(O)cc4CC(CCCCCCCCCS(=O)(CCCC(F)(F)C(F)(F)F)=NC(=O)CN4CCCCC4)C3C1CCC2O (stereo not shown): 0.041
CC12CCC3c4ccc(O)cc4CC(CCCCCCCCCS(=O)(CCCC(F)(F)C(F)(F)F)=NC(=O)CCn4ccnc4)C3C1CCC2O (stereo not shown): 0.017
CC12CCC3c4ccc(O)cc4CC(CCCCCCCCCS(=O)(CCCC(F)(F)C(F)(F)F)=NC(=O)CN4CCOCC4)C3C1CCC2O (stereo not shown): 0.022
CC12CCC3c4ccc(O)cc4CC(CCCCCCCCCS(=O)(CCCC(F)(F)C(F)(F)F)=NC(=O)CCN4CCOCC4)C3C1CCC2O (stereo not shown): 0.036
CC12CCC3c4ccc(O)cc4CC(CCCCCCCCCS(=O)(CCCC(F)(F)C(F)(F)F)=NC(=O)CN4CCCC4)C3C1CCC2O (stereo not shown): 0.183

API: the following record is the query input.
Request the reported PDI associated with C[C@]12CC[C@@H]3c4ccc(O)cc4C[C@@H](CCCCCCCCC[S+]([O-])CCCC(F)(F)C(F)(F)F)[C@H]3[C@@H]1CC[C@@H]2O (stereo partly shown) [FV, fulvestrant, reference compound]
0.102

----------
Test: Zeta potential (Malvern Zetasizer)
Type: physicochemical
Settings: FxNP, siFLuc, DSPC
Protocol: Zeta potential was measured by diluting FXNPs in phosphate to an ion concentration of 1 mM and using a Malvern Zetasizer Nano ZS instrument.
Some compounds, each annotated with its measured Zeta potential (mV).
Put down the number, then write its unit next to it.

Example entries and their recorded answers appear below.
CC12CCC3c4ccc(O)cc4CC(CCCCCCCCCS(=O)(CCCC(F)(F)C(F)(F)F)=NC(=O)CN)C3C1CCC2O (stereo not drawn): −6.62 mV
C[C@]12CC[C@@H]3c4ccc(O)cc4C[C@@H](CCCCCCCCC[S+]([O-])CCCC(F)(F)C(F)(F)F)[C@H]3[C@@H]1CC[C@@H]2O (stereo partly drawn) [FV, fulvestrant, reference compound]: −19.23 mV

Request the reported Zeta potential (mV) associated with CC12CCC3c4ccc(O)cc4CC(CCCCCCCCCS(=O)(CCCC(F)(F)C(F)(F)F)=NC(=O)CCN4CCOCC4)C3C1CCC2O (stereo not drawn)
−11.83 mV

----------
Test: Hydrodynamic diameter and polydispersity index by dynamic light scattering
Format: physicochemical
Details: FxNP, siFLuc, DSPC
Decide using PDI: a value greater than or equal to 0.07 is Yes, a smaller one is No.

# count of solved cases: 5
CN(C)CCC(=O)N=S(=O)(CCCCCCCCCC1Cc2cc(O)ccc2C2CCC3(C)C(O)CCC3C12)CCCC(F)(F)C(F)(F)F (stereo not shown) [7k]: No
CN(C)CC(=O)N=S(=O)(CCCCCCCCCC1Cc2cc(O)ccc2C2CCC3(C)C(O)CCC3C12)CCCC(F)(F)C(F)(F)F (stereo not shown) [7f]: Yes
CN1CCN(CC(=O)N=S(=O)(CCCCCCCCCC2Cc3cc(O)ccc3C3CCC4(C)C(O)CCC4C23)CCCC(F)(F)C(F)(F)F)CC1 (stereo not shown) [7i]: Yes
CC12CCC3c4ccc(O)cc4CC(CCCCCCCCCS(=O)(CCCC(F)(F)C(F)(F)F)=NC(=O)Cn4ccnc4)C3C1CCC2O (stereo not shown) [7b]: No
CC12CCC3c4ccc(O)cc4CC(CCCCCCCCCS(=O)(CCCC(F)(F)C(F)(F)F)=NC(=O)CCN4CCCCC4)C3C1CCC2O (stereo not shown) [7g]: Yes

Given the entry CC12CCC3c4ccc(O)cc4CC(CCCCCCCCCS(=O)(CCCC(F)(F)C(F)(F)F)=NC(=O)CCN4CCCC4)C3C1CCC2O (stereo not shown) [7j] , answer whether its PDI meets or surpasses 0.07.
Yes
